# experimental.system: recombinant human PKM2 (Homo sapiens, UniProt P14618)
# Construct: His (N); purchased R&D Systems
# Sequence (P14618 2-531 limits assumed): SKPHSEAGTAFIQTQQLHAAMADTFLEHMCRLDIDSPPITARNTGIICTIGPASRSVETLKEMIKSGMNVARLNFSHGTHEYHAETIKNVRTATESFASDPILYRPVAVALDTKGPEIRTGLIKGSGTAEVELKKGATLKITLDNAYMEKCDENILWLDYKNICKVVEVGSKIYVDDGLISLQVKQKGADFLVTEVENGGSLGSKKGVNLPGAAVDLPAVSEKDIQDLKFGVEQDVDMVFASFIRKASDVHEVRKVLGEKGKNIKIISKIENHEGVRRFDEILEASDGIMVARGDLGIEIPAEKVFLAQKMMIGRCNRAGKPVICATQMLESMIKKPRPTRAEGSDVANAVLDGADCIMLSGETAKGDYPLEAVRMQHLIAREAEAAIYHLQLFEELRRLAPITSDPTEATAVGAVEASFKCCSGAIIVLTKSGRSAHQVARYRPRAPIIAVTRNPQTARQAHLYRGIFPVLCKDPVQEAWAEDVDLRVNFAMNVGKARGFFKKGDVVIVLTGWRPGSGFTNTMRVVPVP
# assay.method.text: Human PKM2 activation assay (Kinase-Glo Plus luminescent detection of generated ATP)
# Type: biochemical
# experimental.parameters: percentage activation normalised to DMSO vehicle (LOW) and 5 μM TEPP-46 (HIGH); read-out: hPKM2 Emax
readout.name: Emax

Input line: Can you look up Emax on recombinant human PKM2 (Homo sapiens, UniProt P14618) for COc1ccccc1Cn1ncc2cc(S(=O)(=O)c3ccccc3)ccc2c1=O [Example 79] ?
Output line: 90.2%

Input line: Next up: COCCn1ccc(S(=O)(=O)c2ccc3c(=O)n(Cc4ccc5c(n4)CCO5)ncc3c2)n1 [Example 360]
Output line: 113%

* * *

# experimental.system: recombinant human PKM2 (Homo sapiens, UniProt P14618)
# Construct: His (N); purchased R&D Systems
# assay.method.text: Human PKM2 activation assay (Kinase-Glo Plus luminescent detection of generated ATP)
# Assay type: biochemical
# experimental.parameters: recombinant human PKM2 activation; 4-parameter logistic fit; read-out: hPKM2 EC50
yes if EC50 is below 100 nM. no if not; exact matches included in no.

> print(dat)
                                   molecule  classification
1  COc1ccc(Cn2ncc3cc(S(=O)(=O)c4ccc5c(c4)CC(C)O5)ccc3c2=O)cn1 (centres unmarked) [Example 167]             yes
2  COc1ccc(Cn2ncc3cc([S@](=N)(=O)c4ccc(OC(F)F)cc4)ccc3c2=O)cn1 (single isomer, unassigned) [Example 135]              no
3  Nc1cccc(Cn2ncc3cc(S(=O)(=O)c4ccccn4)ccc3c2=O)c1 [Example 144]              no

--- query ---
Input line: Is EC50 strictly under 100 nM for the entry COc1ccc(Cn2ncc3cc(S(=O)(=O)c4cc(C)ns4)ccc3c2=O)cn1 [Example 148] ?
Output line: yes

* * *

# experimental.system: recombinant human PKLR (Homo sapiens)
# Construct: His (N); purchased R&D Systems
# assay.method.text: Human PKLR activation assay (Kinase-Glo Plus luminescent detection of generated ATP)
# Assay type: biochemical
# experimental.parameters: activation of recombinant human PKLR; 4-parameter logistic fit; read-out: hPKLR EC50
readout.name: pEC50
Friendly reminder that pEC50 comes from taking -log10 of the concentration in mol/L.

> print(dat)
                                   compound  readout.name  result.number
1  Nc1cccc(Cn2ncc3cc(S(=O)(=O)c4ccccc4)ccc3c2=O)n1         pEC50           8.28

Input line: Query: pEC50; subject: COc1ccc(Cn2ncc3cc([S@@](=N)(=O)c4ccc5c(c4)CCO5)ccc3c2=O)cn1 (single isomer, unassigned)
Output line: 8.14

Input line: Next up: Cc1ccc(F)c(Cn2ncc3cc(S(=O)(=O)c4cn[nH]c4)ccc3c2=O)n1
Output line: 7.74

* * *

# experimental.system: recombinant human PKLR (Homo sapiens, UniProt P30613)
# Construct: His (N); purchased R&D Systems
# Sequence (P30613 whole entry): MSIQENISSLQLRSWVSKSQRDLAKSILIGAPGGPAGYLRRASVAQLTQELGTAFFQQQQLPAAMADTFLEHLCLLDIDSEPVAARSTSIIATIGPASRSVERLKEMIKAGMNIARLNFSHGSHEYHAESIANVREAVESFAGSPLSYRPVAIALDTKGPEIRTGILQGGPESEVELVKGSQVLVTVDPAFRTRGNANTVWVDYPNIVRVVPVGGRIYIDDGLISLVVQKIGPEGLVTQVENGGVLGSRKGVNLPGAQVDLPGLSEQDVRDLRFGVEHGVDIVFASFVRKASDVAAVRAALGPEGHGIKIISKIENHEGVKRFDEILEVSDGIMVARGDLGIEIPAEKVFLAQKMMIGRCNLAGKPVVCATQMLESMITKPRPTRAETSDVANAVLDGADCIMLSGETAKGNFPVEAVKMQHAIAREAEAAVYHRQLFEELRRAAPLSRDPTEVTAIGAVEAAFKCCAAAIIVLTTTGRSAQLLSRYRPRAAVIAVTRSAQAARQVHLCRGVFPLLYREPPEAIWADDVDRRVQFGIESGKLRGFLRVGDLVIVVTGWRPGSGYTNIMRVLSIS
# assay.method.text: Human PKLR activation assay (Kinase-Glo Plus luminescent detection of generated ATP)
# Type: biochemical
# experimental.parameters: percentage activation normalised to DMSO vehicle (LOW) and 5 μM TEPP-46 (HIGH) controls; read-out: hPKLR Emax (%)
Measured Emax accompanies every entry in the list below.
Report the figure in % without appending any unit label.

Observe how each entry below is paired with its result.
> print(dat)
                           structure.smiles                       experimental.system  readout.name  result.number
1  Cn1ccc(Cn2ncc3cc(S(=O)(=O)c4ccc5c(c4)NCCO5)ccc3c2=O)n1  recombinant human PKLR (Homo sapiens, UniProt P30613)          Emax            140
2  C[C@H]1Cc2cc(S(=O)(=O)c3ccc4c(=O)n(Cc5ccn(C)n5)ncc4c3)ccc2O1  recombinant human PKLR (Homo sapiens, UniProt P30613)          Emax            124
3  O=c1c2ccc(S(=O)(=O)c3cnn(CCO)c3)cc2cnn1Cc1ccn(C2CC2)n1  recombinant human PKLR (Homo sapiens, UniProt P30613)          Emax            124
4  COc1ccc(Cn2ncc3cc(S(=O)(=O)c4ccc(C)cc4)ccc3c2=O)cn1  recombinant human PKLR (Homo sapiens, UniProt P30613)          Emax           85.4
5  Cc1cc(Cn2ncc3cc(S(=O)(=O)c4ccccc4)ccc3c2=O)n[nH]1  recombinant human PKLR (Homo sapiens, UniProt P30613)          Emax            128

Input line: Can you look up Emax on recombinant human PKLR (Homo sapiens, UniProt P30613) for O=c1c2ccc(S(=O)(=O)c3ccc4occc4c3)cc2cnn1Cc1cc[nH]n1 ?
Output line: 121

Input line: Next up: Cn1ccc(Cn2ncc3cc(S(=O)(=O)c4ccccc4)c(F)cc3c2=O)n1
Output line: 134

Input line: Next up: O=c1c2ccc(S(=O)(=O)c3ccccc3)cc2cnn1Cc1cc[nH]n1
Output line: 134
